tgt: Avi-tagged IL-17A (IL-17A molecule with a single biotin tag per dimer) (human) (UniProt Q16552)
assay explanation: AlphaScreen or HTRF; AlphaLISA competition: 2 nM IL-17RA-flag and 2 nM Avi-tagged IL-17A-His with peptide dilutions, 2 h at room temperature; streptavidin donor and anti-FLAG acceptor beads; 20 mM HEPES, 150 mM NaCl, 0.05% Tween-20, 0.1% HSA, pH 7, 1% DMSO; relative IC50, four parameter fit
assay metric: IC50 (nM)
Hi! Could you send only the number? It should be in nM, unit omitted.

# get_value(readout='IC50', item= CLDLQYDMFGALHCV [18–913] )
1900
